- Test system: auxin signaling mutants
- EXPERIMENT_DESCRIPTION: Effect of activators on lateral root density of auxin signaling mutants (Table 2)
- Assay type: in vivo, Arabidopsis thaliana
- MEASUREMENT_CONTEXT: Tir7-1; 30 uM
Form field: lateral root density (one value per entry).
MEASUREMENT_TYPE: lateral root density (LR/cm)

CN1C(=O)C(=Cc2ccc(-c3cccc(C(F)(F)F)c3)o2)SC1=S [A11] | 43.59
CCOC(=O)c1c(NC(=O)COc2ccc(Cl)cc2C)sc2c1CC(C)(C)OC2 [A2] | 28.57
Cc1ccccc1OCC(=O)NN=Cc1ccc(C(=O)O)cc1 [A9] | 17.91
COc1ccccc1CNC(=O)C(C)Sc1ccc(Cl)cc1 (centres unmarked) [A14] | 33.41
NC(=S)NN=Cc1ccc(-c2cccc(C(F)(F)F)c2)o1 [A12] | 27.42

====

Form field: lateral root density (one value per entry).
- Tested on: auxin signaling mutants
- EXPERIMENT_DESCRIPTION: Effect of activators on lateral root density of auxin signaling mutants (Table 2)
- Format: in vivo, Arabidopsis thaliana
- MEASUREMENT_CONTEXT: Iaa28-1; 3 uM
MEASUREMENT_TYPE: lateral root density (LR/cm)

Nc1ncc(Cc2cccc(Cl)c2Cl)s1 [A3] | 13.96
COc1cc(-c2nc3ccccn3c2N=Cc2cccc(Cl)c2Cl)ccc1O [A10] | 0.00
Clc1cccc(C=Nc2ccc(N3CCOCC3)cc2)c1Cl [A4] | 0.00
Cc1c(N=Cc2cccc(Cl)c2Cl)cccc1[N+](=O)[O-] [A7] | 0.00
O=C(NN=Cc1cccc(Cl)c1Cl)c1ccc(O)c(O)c1 [A6] | 0.00
O=C(O)Cc1cccc2ccccc12 [NAA, 1-naphthylacetic acid, reference compound] | 40.09

====

- System: auxin signaling mutants
- EXPERIMENT_DESCRIPTION: Effect of activators on lateral root density of auxin signaling mutants (Table 2)
- Assay type: in vivo, Arabidopsis thaliana
- MEASUREMENT_CONTEXT: TirTM; 3 uM
- Procedure: Afb1, Afb2, Afb3 and the triple mutant Tirlafb2afb3 were described by Dhamasiri et al. (2005). […] For phenotypic analysis, all mutants were grown on vertically oriented square plates (Greiner Labortechnik, Austria) with solid medium derived from standard MS medium. […] After this, root length and number of lateral roots were counted using ImageJ 1.34 freeware.
Form field: lateral root density (one value per entry).
MEASUREMENT_TYPE: lateral root density (LR/cm)

Nc1ncc(Cc2cccc(Cl)c2Cl)s1 [A3] | 10.88
O=C(NN=Cc1cccc(Cl)c1Cl)c1ccc(O)c(O)c1 [A6] | 0.00
Clc1cccc(C=Nc2ccc(N3CCOCC3)cc2)c1Cl [A4] | 0.00
O=C(O)Cc1cccc2ccccc12 [NAA, 1-naphthylacetic acid, reference compound] | 45.09
Cc1c(N=Cc2cccc(Cl)c2Cl)cccc1[N+](=O)[O-] [A7] | 0.00
COc1cc(-c2nc3ccccn3c2N=Cc2cccc(Cl)c2Cl)ccc1O [A10] | 0.00

====

- Tested on: auxin signaling mutants
- EXPERIMENT_DESCRIPTION: Effect of activators on lateral root density of auxin signaling mutants (Table 2)
- Assay type: in vivo, Arabidopsis thaliana
- MEASUREMENT_CONTEXT: Tir1-1; 3 uM
MEASUREMENT_TYPE: lateral root density (LR/cm)

Nc1ncc(Cc2cccc(Cl)c2Cl)s1 | 11.91
COc1cc(-c2nc3ccccn3c2N=Cc2cccc(Cl)c2Cl)ccc1O | 0.77
O=C(O)Cc1cccc2ccccc12 [NAA, 1-naphthylacetic acid, reference compound] | 18.30
Clc1cccc(C=Nc2ccc(N3CCOCC3)cc2)c1Cl | 0.89
Cc1c(N=Cc2cccc(Cl)c2Cl)cccc1[N+](=O)[O-] | 1.01
O=C(NN=Cc1cccc(Cl)c1Cl)c1ccc(O)c(O)c1 | 0.57

====

- Test system: auxin signaling mutants
- EXPERIMENT_DESCRIPTION: Effect of activators on lateral root density of auxin signaling mutants (Table 2)
- Assay type: in vivo, Arabidopsis thaliana
- MEASUREMENT_CONTEXT: Xbat32; 30 uM
MEASUREMENT_TYPE: lateral root density (LR/cm)

Cc1ccccc1OCC(=O)NN=Cc1ccc(C(=O)O)cc1 [A9] | 8.43
CN1C(=O)C(=Cc2ccc(-c3cccc(C(F)(F)F)c3)o2)SC1=S [A11] | 7.76
CCOC(=O)c1c(NC(=O)COc2ccc(Cl)cc2C)sc2c1CC(C)(C)OC2 [A2] | 9.67
COc1ccccc1CNC(=O)C(C)Sc1ccc(Cl)cc1 (stereo not shown) [A14] | 10.88

====

Form field: lateral root density (one value per entry).
- Tested on: auxin signaling mutants
- EXPERIMENT_DESCRIPTION: Effect of activators on lateral root density of auxin signaling mutants (Table 2)
- Format: in vivo, Arabidopsis thaliana
- MEASUREMENT_CONTEXT: Axrt-12; 30 uM
MEASUREMENT_TYPE: lateral root density (LR/cm)

Cc1ccccc1OCC(=O)NN=Cc1ccc(C(=O)O)cc1 [A9] | 6.09
COc1ccccc1CNC(=O)C(C)Sc1ccc(Cl)cc1 (centres unmarked) [A14] | 34.01
CCOC(=O)c1c(NC(=O)COc2ccc(Cl)cc2C)sc2c1CC(C)(C)OC2 [A2] | 13.97
NC(=S)NN=Cc1ccc(-c2cccc(C(F)(F)F)c2)o1 [A12] | 14.15
CN1C(=O)C(=Cc2ccc(-c3cccc(C(F)(F)F)c3)o2)SC1=S [A11] | 12.26

====

- Tested on: auxin signaling mutants
- EXPERIMENT_DESCRIPTION: Effect of activators on lateral root density of auxin signaling mutants (Table 2)
- Assay type: in vivo, Arabidopsis thaliana
- MEASUREMENT_CONTEXT: Xbat32; 3 uM
MEASUREMENT_TYPE: log10 of lateral root density (log10 of the value in LR/cm)

COc1cc(-c2nc3ccccn3c2N=Cc2cccc(Cl)c2Cl)ccc1O | 0.92
Cc1c(N=Cc2cccc(Cl)c2Cl)cccc1[N+](=O)[O-] | 0.09
O=C(O)Cc1cccc2ccccc12 [NAA, 1-naphthylacetic acid, reference compound] | 1.53
Clc1cccc(C=Nc2ccc(N3CCOCC3)cc2)c1Cl | -0.04
O=C(NN=Cc1cccc(Cl)c1Cl)c1ccc(O)c(O)c1 | 1.00
Nc1ncc(Cc2cccc(Cl)c2Cl)s1 | 1.12

====

- Tested on: auxin signaling mutants
- EXPERIMENT_DESCRIPTION: Effect of activators on lateral root density of auxin signaling mutants (Table 2)
- Assay type: in vivo, Arabidopsis thaliana
- MEASUREMENT_CONTEXT: Arf16; 30 uM
MEASUREMENT_TYPE: lateral root density (LR/cm)

NC(=S)NN=Cc1ccc(-c2cccc(C(F)(F)F)c2)o1 [A12] | 10.94
Cc1ccccc1OCC(=O)NN=Cc1ccc(C(=O)O)cc1 [A9] | 6.67
COc1ccccc1CNC(=O)C(C)Sc1ccc(Cl)cc1 (centres unmarked) [A14] | 32.75
CCOC(=O)c1c(NC(=O)COc2ccc(Cl)cc2C)sc2c1CC(C)(C)OC2 [A2] | 9.56
CN1C(=O)C(=Cc2ccc(-c3cccc(C(F)(F)F)c3)o2)SC1=S [A11] | 8.76

====

- System: auxin signaling mutants
- EXPERIMENT_DESCRIPTION: Effect of activators on lateral root density of auxin signaling mutants (Table 2)
- Format: in vivo, Arabidopsis thaliana
- MEASUREMENT_CONTEXT: Afb2-1; 3 uM
Form field: lateral root density (one value per entry).
MEASUREMENT_TYPE: lateral root density (LR/cm)

COc1cc(-c2nc3ccccn3c2N=Cc2cccc(Cl)c2Cl)ccc1O | 15.90
O=C(O)Cc1cccc2ccccc12 [NAA, 1-naphthylacetic acid, reference compound] | 59.72
Cc1c(N=Cc2cccc(Cl)c2Cl)cccc1[N+](=O)[O-] | 2.69
Nc1ncc(Cc2cccc(Cl)c2Cl)s1 | 19.58
O=C(NN=Cc1cccc(Cl)c1Cl)c1ccc(O)c(O)c1 | 7.34
Clc1cccc(C=Nc2ccc(N3CCOCC3)cc2)c1Cl | 2.16

====

- Tested on: auxin signaling mutants
- EXPERIMENT_DESCRIPTION: Effect of activators on lateral root density of auxin signaling mutants (Table 2)
- Format: in vivo, Arabidopsis thaliana
- MEASUREMENT_CONTEXT: Afb1-1; 3 uM
- Experimental: Afb1, Afb2, Afb3 and the triple mutant Tirlafb2afb3 were described by Dhamasiri et al. (2005). […] For phenotypic analysis, all mutants were grown on vertically oriented square plates (Greiner Labortechnik, Austria) with solid medium derived from standard MS medium. […] After this, root length and number of lateral roots were counted using ImageJ 1.34 freeware.
Answer Not fulfilled if lateral root density is under 10 LR/cm, and Fulfilled if it is 10 LR/cm or more.

Clc1cccc(C=Nc2ccc(N3CCOCC3)cc2)c1Cl [A4] | Not fulfilled
Nc1ncc(Cc2cccc(Cl)c2Cl)s1 [A3] | Fulfilled
O=C(NN=Cc1cccc(Cl)c1Cl)c1ccc(O)c(O)c1 [A6] | Fulfilled
O=C(O)Cc1cccc2ccccc12 [NAA, 1-naphthylacetic acid, reference compound] | Fulfilled
Cc1c(N=Cc2cccc(Cl)c2Cl)cccc1[N+](=O)[O-] [A7] | Not fulfilled
COc1cc(-c2nc3ccccn3c2N=Cc2cccc(Cl)c2Cl)ccc1O [A10] | Fulfilled
